biological target: helicase domain of the Pol θ protein (Homo sapiens, UniProt O75417); construct: The helicase domain of the Pol θ protein was purified from insect protein expression system; made in house; host or cells: insect protein expression system; assay: Biochemical Activity Assay (ADP Glo Assay) of Pol θ inhibitor, ATPase activity; settings: ADP-Glo assay, ATPase activity of Pol θ helicase domain, ssDNA substrate; read-out: Biochemical assay IC50
Sequence (O75417 102-554 limits assumed): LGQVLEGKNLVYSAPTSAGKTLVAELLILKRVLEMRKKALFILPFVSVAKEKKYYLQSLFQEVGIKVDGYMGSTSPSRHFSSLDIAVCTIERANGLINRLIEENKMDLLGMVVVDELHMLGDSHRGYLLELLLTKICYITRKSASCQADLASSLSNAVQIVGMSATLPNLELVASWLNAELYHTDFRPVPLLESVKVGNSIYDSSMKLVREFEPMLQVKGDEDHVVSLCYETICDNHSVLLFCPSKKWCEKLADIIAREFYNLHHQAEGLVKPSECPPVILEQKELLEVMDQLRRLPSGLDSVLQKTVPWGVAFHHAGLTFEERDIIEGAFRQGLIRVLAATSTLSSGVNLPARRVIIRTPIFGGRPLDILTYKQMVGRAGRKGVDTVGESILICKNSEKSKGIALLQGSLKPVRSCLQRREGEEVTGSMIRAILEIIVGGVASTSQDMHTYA
pIC50: −log10 of the molar value.
pIC50 below 8 gives no (0); pIC50 at or above it gives yes (1).

Observe how each entry below is paired with its result.
COc1cnc(Cl)cc1-c1cc(C)ncc1C(=O)Nc1nc2ccc(C3=CCC(O)CC3)c(C#N)c2s1 (stereo not drawn) [Example 22]	no (0)
COc1cnc(Cl)c(F)c1-c1cc(C)ncc1C(=O)Nc1nc2cnc(-c3c(C)nnn3C)cc2s1 [Example 172]	yes (1)
[2H]COc1cnc(Cl)cc1-c1cc(C)ncc1C(=O)Nc1nc2cnc(C3=CCC(O)CC3)cc2s1 (stereo not drawn) [Example 108]	yes (1)

Task: Entry COc1cnc(Cl)cc1-c1cc(C)ncc1C(=O)Nc1nc2ncc(C3=CCC(O)CC3)nc2s1 (stereo not drawn) [Example 12] : is its pIC50 no less than 8?
Result: yes (1)

Task: Moving on to the next compound: COC(=O)c1cc(-c2c(C)cnn2C)cc2sc(NC(=O)c3cnc(C)cc3-c3cc(Cl)ncc3OC)nc12 [Example 162]
Result: no (0)

Task: How about this compound: COc1cnc(Cl)cc1-c1cc(C)ncc1C(=O)Nc1nc2cnc(-c3c(Cl)cnn3C)cc2s1 [Example 167]
Result: yes (1)

Task: Also check COc1cnc(Cl)cc1-c1cc(C)ncc1C(=O)Nc1nc2ccc(-c3c(C)nnn3C)nc2s1 [Example 147]
Result: no (0)

Task: Next compound up: COc1cnc(Cl)cc1-c1cc(C)ncc1C(=O)Nc1nc2ncc(C3=COCCO3)cc2s1 [Example 86]
Result: yes (1)

Task: Subsequent entry: COc1cnc(Cl)cc1-c1cc(C)ncc1C(=O)Nc1nc2ncc(-c3c(C)cnn3C)nc2s1 [Example 160]
Result: yes (1)
